Biological target: Glycogen synthase kinase-3 beta (Homo sapiens)
Sequence (P49841 whole entry): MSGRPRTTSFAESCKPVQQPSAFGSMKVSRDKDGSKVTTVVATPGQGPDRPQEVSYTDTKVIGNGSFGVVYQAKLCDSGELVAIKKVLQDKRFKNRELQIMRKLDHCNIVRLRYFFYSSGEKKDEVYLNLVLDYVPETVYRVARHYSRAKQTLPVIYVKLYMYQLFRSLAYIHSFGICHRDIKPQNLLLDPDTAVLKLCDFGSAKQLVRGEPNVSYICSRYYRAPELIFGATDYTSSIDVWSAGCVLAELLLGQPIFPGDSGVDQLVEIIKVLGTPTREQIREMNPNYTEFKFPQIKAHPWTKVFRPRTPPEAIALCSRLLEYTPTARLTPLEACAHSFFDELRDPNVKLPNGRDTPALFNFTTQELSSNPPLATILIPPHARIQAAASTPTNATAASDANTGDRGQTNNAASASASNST
Assay: concentration-response blocking of human GSK3B – biochemical, luminescence, cell-free homogeneous, retest, dose response (AID 434954)
reported.endpoint: pEC50
Hey, just a heads up that pEC50 is the negative log base 10 of the concentration in molar.

compound: CC(C)=CCc1cc([C@@H]2CC(=O)c3ccc(O)c(CC=C(C)C)c3O2)ccc1O
system.tested: Glycogen synthase kinase-3 beta (Homo sapiens)
endpoint.value: 4.23

compound: c1ccc2c(CSc3nnc(-c4ccncc4)o3)cccc2c1
system.tested: Glycogen synthase kinase-3 beta (Homo sapiens)
endpoint.value: 4.54

compound: Cc1ccc(Nc2nc(NCC3CCCO3)nc(N)c2[N+](=O)[O-])cc1 (stereo not given)
system.tested: Glycogen synthase kinase-3 beta (Homo sapiens)
endpoint.value: 5.31

Please look at the following compound next.
I looked up O=C1Nc2cc(C(=O)NCCCN3CCCC3)ccc2S/C1=C/c1ccccc1F and its pEC50 for Glycogen synthase kinase-3 beta (Homo sapiens) was 5.16

====

Molecular target: Glycogen synthase kinase-3 beta (Homo sapiens)
Assay: concentration-response blocking of human GSK3B – biochemical, luminescence, cell-free homogeneous, retest, dose response (AID 434954)
Reported EC50 values are given for each entry in this list.
Enter your answer as a number in µM; do not include the unit.

Solved entries:
smiles.text: Cn1c(SCC(=O)Nc2ccc(Br)cn2)nnc1C1CC1
EC50 [µM]: 20.7

smiles.text: COc1ccc(/C=C2/Sc3ccc(C(=O)NCCCN4CCOCC4)cc3NC2=O)cc1OC
EC50 [µM]: 60.3

Please look at the following compound next.
// CNc1nc(N)c([N+](=O)[O-])c(NC2CCCCC2)n1 : EC50 value = 7.52

====

Biological target: Glycogen synthase kinase-3 beta (Homo sapiens)
Assay: concentration-response blocking of human GSK3B – biochemical, luminescence, cell-free homogeneous, retest, dose response (AID 434954)
pEC50: −log10 of the molar value.
Outcome label depends on pEC50 relative to 5: at/above gives T, below gives F.

Some solved entries appear below for comparison.
compound: COc1cc(C(c2nnnn2C(C)(C)C)N2CCN(c3nc4ccccc4s3)CC2)ccc1O (stereo not given) [MLS000027473]
classification: F
//
compound: Cc1c(CN(C)C)c2c(n1C)C(=O)c1ccc(Br)cc1-2
classification: F
//
compound: Cc1cc(C)cc(NC(=O)NCC2CCN(Cc3cc(C)ccc3C)CC2)c1
classification: F
//
compound: Nc1nc(NCCc2ccccc2)nc(NCCO)c1[N+](=O)[O-] [MLS001213372]
classification: T
//
compound: O=C(C(Cc1ccccc1)n1cccc1)N1CCN(c2cccc(Cl)c2)CC1 (stereo not given) [SMR000127921]
classification: F
//
compound: CCOC(=O)c1sc(NC(=O)CCN2C(=O)c3cccc([N+](=O)[O-])c3C2=O)c(C(=O)OCC)c1C
classification: F
//
compound: O=C(CCl)Oc1ccc2occ(C(=O)c3cccs3)c2c1 [SMR000121351]
classification: T
//
compound: Cc1cccc(COc2ccc(/C=C3/C(=O)N(C)C(=S)N3C)cc2)c1 [MLS001164511]
classification: F
//
compound: O=C1N=C(NCc2ccccc2)SC1=Cc1ccccc1 [MLS000589841]
classification: F
//
compound: O=c1cc(NCc2ccccc2)nc2n1CCCS2 [MLS000027636]
classification: F

Ask | Please indicate if the recorded pEC50 for CN(C)c1nc(N)c([N+](=O)[O-])c(NCCO)n1 meets or exceeds 5.
Reply | F

Ask | Please indicate if the recorded pEC50 for NCCCNc1nc(N)c([N+](=O)[O-])c(NC2CCCCC2)n1 meets or exceeds 5.
Reply | T

Ask | Please indicate if the recorded pEC50 for Cc1ccnc(NC(=O)Cn2cc([N+](=O)[O-])cn2)c1 [SMR000307337] meets or exceeds 5.
Reply | F

Ask | Please indicate if the recorded pEC50 for COc1cccc(/C=C2/Sc3ccc(C(=O)NCCN4CCCCCC4)cc3NC2=O)c1 [MLS001030753] meets or exceeds 5.
Reply | F

Ask | Please indicate if the recorded pEC50 for CCNc1nc(N)nc(-c2cc(Cl)ccc2O)n1 meets or exceeds 5.
Reply | T

Ask | Please indicate if the recorded pEC50 for Cc1ccc(-c2nn(-c3ccccc3)cc2CN=O)cc1 meets or exceeds 5.
Reply | T

Ask | Please indicate if the recorded pEC50 for COc1ccccc1Nc1nc(NCCC(C)C)nc(N)c1[N+](=O)[O-] meets or exceeds 5.
Reply | T

Ask | Please indicate if the recorded pEC50 for CCOC(=O)c1cnc2ccc(OCC)cc2c1N1CCN(C)CC1 [MLS000047802] meets or exceeds 5.
Reply | F

Ask | Please indicate if the recorded pEC50 for CC1(C)Oc2ccc(C(=O)N3CCOCC3)cc2N(CC(=O)N2CCOCC2)C1=O meets or exceeds 5.
Reply | F

Ask | Please indicate if the recorded pEC50 for NS(=O)(=O)c1cccc(NC(=O)COC(=O)/C(=C/c2cccs2)c2cccs2)c1 [SMR000242820] meets or exceeds 5.
Reply | F

Ask | Please indicate if the recorded pEC50 for Nc1nc(NCCCN2CCOCC2)nc(Nc2cccc(F)c2)c1[N+](=O)[O-] [SMR000436037] meets or exceeds 5.
Reply | F

Ask | Please indicate if the recorded pEC50 for Nc1nonc1-n1nnc(C(=O)N/N=C/c2ccncc2)c1CN1CCCCC1 meets or exceeds 5.
Reply | T
